targetOrTestSystem: CDK9/CyclinT1 (Homo sapiens, UniProt P50750)
Sequence (P50750 whole entry): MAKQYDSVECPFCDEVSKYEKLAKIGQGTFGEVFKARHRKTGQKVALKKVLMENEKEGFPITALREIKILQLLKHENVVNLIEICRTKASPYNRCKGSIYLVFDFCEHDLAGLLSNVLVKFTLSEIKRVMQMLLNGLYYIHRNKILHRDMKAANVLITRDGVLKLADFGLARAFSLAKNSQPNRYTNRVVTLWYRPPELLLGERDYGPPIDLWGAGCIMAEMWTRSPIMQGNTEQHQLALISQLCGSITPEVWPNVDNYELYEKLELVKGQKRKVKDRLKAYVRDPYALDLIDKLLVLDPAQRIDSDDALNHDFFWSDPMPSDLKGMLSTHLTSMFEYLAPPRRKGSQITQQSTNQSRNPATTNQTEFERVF
Sequence (O60563 whole entry partner): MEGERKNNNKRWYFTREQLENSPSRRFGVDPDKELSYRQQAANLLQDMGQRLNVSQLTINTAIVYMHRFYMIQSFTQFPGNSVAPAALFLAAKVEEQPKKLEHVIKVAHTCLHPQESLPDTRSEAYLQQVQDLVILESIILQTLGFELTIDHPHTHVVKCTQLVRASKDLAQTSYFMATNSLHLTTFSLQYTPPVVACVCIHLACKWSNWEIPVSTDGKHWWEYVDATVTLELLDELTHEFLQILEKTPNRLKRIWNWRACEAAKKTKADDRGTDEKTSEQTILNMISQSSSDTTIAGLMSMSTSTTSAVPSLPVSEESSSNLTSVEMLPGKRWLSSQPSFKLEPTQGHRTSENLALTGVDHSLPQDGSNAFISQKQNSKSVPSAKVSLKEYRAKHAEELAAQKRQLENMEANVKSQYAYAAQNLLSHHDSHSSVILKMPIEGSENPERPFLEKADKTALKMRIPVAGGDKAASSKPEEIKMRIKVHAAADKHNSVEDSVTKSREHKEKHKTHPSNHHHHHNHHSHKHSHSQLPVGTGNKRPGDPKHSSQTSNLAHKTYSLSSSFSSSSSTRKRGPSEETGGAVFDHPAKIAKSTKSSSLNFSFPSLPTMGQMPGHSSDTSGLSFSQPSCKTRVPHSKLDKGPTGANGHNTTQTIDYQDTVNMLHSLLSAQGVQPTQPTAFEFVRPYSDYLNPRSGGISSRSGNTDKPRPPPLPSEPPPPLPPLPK
test: CDK9/T1 ADPGlo kinase assay
appliedConditions: CDK9/CyclinT1 6 nM, ATP 10 microM, PDKtide 40 microM, 120 min RT
measuredParameter: IC50

>>> df
                                   compound                        targetortestsystem  measurement
0  CC(C)(C)N1CCN(c2ccc(Nc3nc(-c4c(F)cccc4F)nc4c(Cl)cnn34)cc2)CC1 [Example #97]  CDK9/CyclinT1 (Homo sapiens, UniProt P50750)     < 200 nM
1  N[C@@H]1CC[C@H](Nc2nc(-c3c(F)cccc3F)nc3c(Cl)cnn23)C1 [Example #125]  CDK9/CyclinT1 (Homo sapiens, UniProt P50750)     < 200 nM
2  NC1CC(Nc2nc(-c3c(F)cccc3F)nc3c(Cl)cnn23)C1 (stereo not shown) [Example #129]  CDK9/CyclinT1 (Homo sapiens, UniProt P50750)      < 20 nM
3  Fc1cccc(F)c1-c1nc(NC2CCC(N3CCCC3)CC2)n2ncc(Cl)c2n1 (stereo not shown) [Example #138]  CDK9/CyclinT1 (Homo sapiens, UniProt P50750)      < 20 nM

====

targetOrTestSystem: CDK9/CyclinT1 (Homo sapiens, UniProt P50750)
test: CDK9/T1 ADPGlo kinase assay
appliedConditions: CDK9/CyclinT1 6 nM, ATP 10 microM, PDKtide 40 microM, 120 min RT
pIC50: −log10 of the molar value.
measuredParameter: pIC50

                                   molecule  measuredparameter  measurement
0  CC(C)(C)NC(=O)c1ccc(Nc2nc(-c3c(F)cccc3F)nc3ccnn23)cc1 [Example #27]              pIC50       > 6.00
1  Fc1cccc(F)c1-c1nc(N[C@H]2CC[C@H](N3CCOCC3)CC2)n2ncc(I)c2n1 [Example #140]              pIC50       > 6.70
2  O=C(NC1CCOCC1)c1ccc(Nc2nc(-c3c(F)cccc3Cl)nc3ccnn23)cc1 [Example #25]              pIC50       > 6.00
3  Cc1cnn2c(Nc3cnn(C4CCN(C5CCOCC5)CC4)c3)nc(-c3c(F)cccc3F)nc12 [Example #77]              pIC50       > 6.70
4  CCOc1cc(Nc2nc(-c3c(F)cccc3Cl)nc3ccnn23)ccc1C1CCN(C)CC1 [Example #17]              pIC50       > 6.00
5  Fc1cccc(F)c1-c1nc(Nc2cnn(C3CCN(C4CCOCC4)CC3)c2)n2ncc(Br)c2n1 [Example #94]              pIC50       > 6.70
6  CCN(CCO)CCCC(C)Nc1nc(-c2c(F)cccc2F)nc2c(Cl)cnn12 (centres unmarked) [Example #107]              pIC50       > 7.70
7  N[C@H]1CC[C@H](Nc2nc(-c3c(F)cccc3F)nc3c(Cl)cnn23)CC1 [Example #108]              pIC50       > 7.70

====

targetOrTestSystem: CDK2/cyclin A (Homo sapiens, UniProt P24941)
test: CDK2/cyclin A Z'-LYTE (SelectScreen)
appliedConditions: duplicate, averaged
measuredParameter: IC50

In [3]: df
Out[3]:
                                   compound  measurement
0  FCCCN[C@H]1CC[C@H](Nc2nc(-c3c(F)cccc3F)nc3c(Cl)cnn23)CC1       < 1 µM
1  FCCN[C@H]1CC[C@H](Nc2nc(-c3c(F)cccc3F)nc3c(Cl)cnn23)CC1     < 0.2 µM
2  COCCNC1CCC(Nc2nc(-c3c(F)cccc3F)nc3c(Cl)cnn23)CC1 (stereo not shown)       < 1 µM
3  Fc1cccc(F)c1-c1nc(N[C@H]2CC[C@H](N3CCCCC3)CC2)n2ncc(Cl)c2n1       < 1 µM
4  CN(C)[C@H]1CC[C@H](Nc2nc(-c3c(F)cccc3F)nc3c(Cl)cnn23)CC1       < 1 µM
5  N[C@H]1CC[C@H](Nc2nc(-c3c(F)cccc3F)nc3c(Cl)cnn23)CC1     < 0.2 µM
6  Fc1cccc(F)c1-c1nc(N[C@H]2CC[C@H](N3CCOCC3)CC2)n2ncc(Cl)c2n1       < 1 µM
